The measured values listed here are drawn from patent US20090197906A1.

- System: 451 Lu
- assay-name: cloning assay in methylcellulose (colony formation)
- Type: cell-based, human
- stated-conditions: read-out: Inhibition of colony formation (methylcellulose) IC50
outcome-measure: IC50 (nM)

[[record]]
molecule_smiles = "CS(=O)(=O)[O-].Cc1c2cc[n+](CCN3CCCCC3)cc2c(C)c2c1[nH]c1ccc(O)cc12"
target_or_system = "451 Lu"
measurement_unit = "nM"
reported_measurement = 2000


* * *

- System: SK-N-MC
- assay-name: cloning assay in methylcellulose (colony formation)
- Type: cell-based
- stated-conditions: read-out: Inhibition of colony formation (methylcellulose) IC50
pIC50: −log10 of the molar value.
outcome-measure: pIC50

[[record]]
compound = "CS(=O)(=O)[O-].Cc1c2cc[n+](CCN3CCCCC3)cc2c(C)c2c1[nH]c1ccc(O)cc12 [BA016FZ539]"
outcome_measure = "pIC50"
reported_measurement = 6.69

